- Test name: Oral pharmacokinetic test in mice
- Settings: male, C57, mouse, in vivo, 10 mg/kg
Reported metric: AUC(0-t) (ng·h/mL)
Answer in ng·h/mL, number only, no unit symbol.

**Q:** Reported AUC(0-t), compound N#CCC1(n2cc(-c3ncnc4[nH]ccc34)cn2)CCC(F)(F)CC1 [Compound 1] : ____
**A:** 2130
